Ref: patent EP4782453A1

- System: MV-4-11 (carrying MLL-AF4)
- method notes: Inhibition of proliferation of human tumor cells (Alamar Blue, 7 days), MV-4-11
- Type: cell-based
- condition label: Homo sapiens, MV4-11, 168 h, MV-4-11 cells (carrying MLL-AF4), method calls the value GI50
value kind: IC50 (nM)

See these solved cases before continuing.
# compound, IC50 / nM
rows = [
    ("COCCN(C)CCCC(C(C)C)N1CC(c2cc(-c3ccc(F)cc3C(=O)N3CCOCC3C)c3cnn(C)c3c2)C1 (stereo not shown)", 26),
    ("CCS(=O)(=O)N[C@H]1CC[C@H](CN2CCC(c3cc(-c4ccc(F)cc4C(=O)N(CC(F)F)C(C)C)c4cnccn34)CC2)CC1", 44),
]

1: CCC(=O)N1CCC([C@H](C)N2CC(c3cc(-c4ccc(F)cc4C(=O)N4CCOC[C@H]4C)c4c(F)nc(C)n4c3)C2)CC1
2: Cc1nc(F)c2c(-c3ccc(F)cc3C(=O)N3CCOCC3C)cc(C3CN(C(CCCN4CCCC(O)C4)C(C)C)C3)cn12 (stereo not shown)
Problem: // select label with min value of measured IC50 from [ 1 , 2 ] Mark your answer with the label of the selected entry.
Result: 2
